Tested on: SNB-19
Assay: NCI tumour cell line growth inhibition, 48 h
Active and inactive are the calls of the source. Cut-off read from the data, not from the text of the source: active = GI50 up to about 1.1 µM and inactive = higher.
Entry note: the call must match one of active, inactive

Field: example entries. Status: answers known.
1. CC(C)C(C)C(O)C(O)C(C)C1CCC2C3COC(=O)C4CC(O)C(O)CC4(C)C3CCC12C (stereo not given) ... inactive
2. CCOC(=O)n1c(=O)nc2c3c(ncn21)Oc1c(c(-c2ccccc2)nn1-c1ccccc1)C3c1ccc(Cl)cc1 (stereo not given) ... inactive
3. CN(C)/C=N\c1nc(=O)n(C2CCC(CO)O2)cc1F (stereo not given) ... inactive

Prompt: Each molecule tested received a call. Report the one for Cc1c(NC(=O)C(C)(C)Br)c(=O)oc2c(C)c3occc(=O)c3cc12 .
Completion: inactive

Prompt: One more molecule: Cc1ccccc1S(=O)(=O)OC1NS(=O)(=O)c2ccccc21 (stereo not given)
Completion: inactive

Prompt: Try the molecule c1ccc(C2N3CCCCC3[C@@H]3c4[nH]c5ccccc5c4CCN23)nc1 (stereo not given in full)
Completion: inactive

Prompt: Another molecule to check: CCOC1CCN(C(=O)c2ccccc2)O1 (stereo not given)
Completion: inactive

Prompt: Moving on to Cc1cccc2c(NCCCN(C)C)c3c([N+](=O)[O-])ccc(C)c3nc12
Completion: active

====

System: OVCAR-4
Test: NCI tumour cell line growth inhibition, 48 h
Activity calls are given as the source filed them. Rule as the data show it: active = GI50 up to about 1.1 µM and inactive = higher.
experimental readout: GI50

Below are worked cases with known answers.
1) O=S1(=O)OCCOS(=O)(=O)C1Cc1cccc2ccccc12 ... 19.8 µM (inactive)
2) CN(C)CCNc1ccccn1 ... > 100 µM (inactive)
3) Clc1cc(OCc2nn3c(Cc4ccccc4)nnc3s2)c(Cl)cc1OCc1nn2c(Cc3ccccc3)nnc2s1 ... 50 µM (inactive)
4) O=C(c1ccccc1)c1ccc2cccc(O)c2n1 ... 67.8 µM (inactive)
5) NC(=O)C#CC#CC#CCO ... 1.83 µM (inactive)

Please report GI50 for every entry that follows.
1. Nc1c(-c2cn(Cc3ccccc3)c3ccccc23)[n+]([O-])c2ccccc2[n+]1[O-]
2. O=C1C=CC=C/C1=C1\N=C(c2ccccc2OCC(=O)c2ccccc2)SS1

Completion:
1. 43.6 µM (inactive)
2. > 100 µM (inactive)

====

Test system: A549
Assay: NCI tumour cell line growth inhibition, 48 h
Calls of active or inactive are those of the source. Cut-off read from the data, not from the text of the source: active = GI50 up to about 1.1 µM and inactive = higher.
experimental readout: GI50

Here's what some known entries look like.
1. CC(=O)/N=C1\N/C(=C/c2cc([N+](=O)[O-])ccc2O)CN1C ... > 100 µM (inactive)
2. CC(=O)c1ccc(NC(=O)/C(Cc2ccccn2)=N/NC(=O)C[N+](C)(C)C)cc1 ... > 100 µM (inactive)
3. CN1NC(c2ccccc2)=C(C#N)C(=O)CC1c1ccccc1Cl (configuration not stated) ... > 100 µM (inactive)
4. O=C(c1ccccc1)c1ccc2[nH]c(-c3c(Cl)c(Cl)c(Cl)c(Cl)c3C(=O)Nc3ccco3)nc2c1 ... 26.5 µM (inactive)
5. NNC(=O)CCCCCCCC(=O)O ... > 100 µM (inactive)

Dear colleague, could you please provide GI50 for the compounds listed below?
1. C=CCN(C)CN(C)c1nc(N(C)C)nc(N(C)C)n1
2. CCOC(=O)Cn1sc2ncc([N+](=O)[O-])cc2c1=O
3. COc1ccc(-c2cc(=O)c3c(O)c(OC)c(OC)c(OC)c3o2)cc1 [GARDENIN B]
4. COc1ccc(/C=C/c2ccnc3ccccc23)c(OC)c1
5. C=CCn1c2ccccc2[n+]2cc([N+](=O)[O-])ccc12
6. CC(C)(C)c1cc(C(=O)/C=C/c2ccc3c(c2)OCO3)cc(C(C)(C)C)c1O
7. O=C(CC(O)(C(F)(F)Cl)C(F)(F)Cl)CC(O)(C(F)(F)Cl)C(F)(F)Cl

Completion:
1: > 100 µM (inactive); 2: 19.3 µM (inactive); 3: 10.1 µM (inactive); 4: > 10 µM (inactive); 5: > 100 µM (inactive); 6: 9.64 µM (inactive); 7: 1.73 µM (inactive)

Items follow; give GI50 for each.
1. Nc1ccc2c(c1)Nc1c3ccccc3nc3cccc-2c13
2. O=C(/C=C/c1ccccc1)CSc1nc[nH]n1
3. Brc1ccc2[nH]cc([C@@H]3CN[C@@H](c4c[nH]c5ccc(Br)cc45)CN3)c2c1
4. Cc1cc2sc(C)[n+](CCCOS(=O)(=O)[O-])c2cc1C
5. O=c1cc(-c2ccc(O)cc2)oc2cc(O)cc(O)c12 [APIGENIN]
6. CO[C@@H]1C=C[C@@]23c4cc5c(cc4C(O)N(CC2O)C3C1)OCO5 (some centres not stated)
7. Cc1nc2ccc(Cl)cc2c2c1CCS2

Completion:
1.36 µM (inactive)
> 100 µM (inactive)
6.15 µM (inactive)
> 100 µM (inactive)
42.9 µM (inactive)
3.35 µM (inactive)
67 µM (inactive)

====

System: M14
Experiment: NCI tumour cell line growth inhibition, 48 h
Active and inactive are the calls of the source. No stated cut-off is given here; in the data, active = GI50 up to about 1.1 µM and inactive = higher.
Would you kindly list GI50 for each of these compounds?

Please review the following examples before continuing.
1. COc1ccc(C2C3=CONC3CC3CCCCC32)cc1 (stereo unspecified) ... 54.5 µM (inactive)
2. CC(C)OP(=O)(OC(C)C)/C(N)=N/Nc1ccc([N+](=O)[O-])cc1 ... > 100 µM (inactive)
3. N=C(N)NC(=N)Nc1ccc(S(=O)(=O)O)cc1 ... > 100 µM (inactive)
4. CC(C)(C)C(O)CC(O)(C(F)(F)F)C(F)(F)F (stereo unspecified) ... > 100 µM (inactive)

Items follow; give GI50 for each.
1. CCC(NC(C)c1ccccc1)C(=O)c1ccc(OCc2ccccc2)c(OCc2ccccc2)c1 (stereo unspecified)
2. Cc1[nH]c(-c2ccccc2)c2nc(N(C)C)oc(=O)c12

Completion:
1: > 100 µM (inactive); 2: > 100 µM (inactive)

====

Tested on: NCI-H226
Assay: NCI tumour cell line growth inhibition, 48 h
Calls of active or inactive are those of the source. No stated cut-off is given here; in the data, active = GI50 up to about 1.1 µM and inactive = higher.
Choose one outcome from this list and give only that: active, inactive

1) CC(C)OP(=O)(OC(C)C)/C(N)=N/Nc1ccc([N+](=O)[O-])cc1 ... inactive
2) N#CC1C(=O)NC(=O)C1=O (stereo not drawn) ... inactive
3) CCCN(CCC)C(=O)c1nc(N)nc(-c2ccc(OC)cc2)c1-c1ccc(OC)cc1 ... inactive
4) NNC(=O)CCCCCCCC(=O)O ... inactive
5) O=S(=O)(O)c1cc(/N=N/c2c(O)ccc3ccccc23)c2c(S(=O)(=O)O)cccc2c1 ... inactive
6) Cc1cccc2c(NCCCN(C)C)c3c([N+](=O)[O-])ccc(C)c3nc12 ... active
7) CN(C)CCNc1ccc2ncn3c4ccc(O)cc4c(=O)c1c23 ... active
8) C(/COc1cccnc1)=N\NC1=NCCN1 ... inactive

Prompt: Hey, what did the test say about Cc1c2cccc-2c2cc(O)c3ccccc3c2n1-c1ccc(N(C)C)cc1 ?
Completion: inactive

Prompt: Same read-out for O=S1(=O)OCCOS(=O)(=O)C1Cc1cccc2ccccc12 ?
Completion: inactive

Prompt: Next record, please: O=C(O)[C@H](c1ccccc1)[C@@H](C(=O)O)c1ccccc1
Completion: inactive

Prompt: Queued: CCOC(=O)CCCNC(=O)CCCCC(=O)N(C)C
Completion: inactive

Prompt: Now the molecule Cc1c(C#N)c(N)[nH]c(=S)c1C#N
Completion: inactive

Prompt: Now consider Cc1nn(-c2ccccc2)c2nc3c(c(C)nn3-c3ccccc3)c(-c3ccc(C(F)(F)F)cc3)c12 .
Completion: inactive

Prompt: Ok, now CC(=O)OCC1OC(SC2=NC(=O)/C(=C/c3ccccc3)S2)C(OC(C)=O)C(OC(C)=O)C1OC(C)=O (stereo not drawn)
Completion: inactive

Prompt: Continue with COc1ccc(Nc2nc(N)c(C(=O)c3ccccc3)s2)cc1
Completion: active

====

Task for the reader: assign each of the following molecules its reported GI50.
System: SF-295
Experiment: NCI tumour cell line growth inhibition, 48 h
Activity calls are given as the source filed them. Rule as the data show it: active = GI50 up to about 1.1 µM and inactive = higher.

1. CC(=O)OC1CC2C(=O)C(=O)C1(C)C2(C)C (stereo unspecified) ... > 100 µM (inactive)
2. Cn1c(=O)c2c(ncn2CCCCOc2ccc3c(c2)[n+]([O-])nc(N)[n+]3[O-])n(C)c1=O ... 32.6 µM (inactive)
3. CCOC(=O)n1c(=O)nc2c3c(ncn21)Oc1c(c(-c2ccccc2)nn1-c1ccccc1)C3c1ccc(Cl)cc1 (stereo unspecified) ... 1.86 µM (inactive)
4. Cc1c(NC(=O)C(C)(C)Br)c(=O)oc2c(C)c3occc(=O)c3cc12 ... 22.9 µM (inactive)
5. Nc1ccc2c(c1)Nc1c3ccccc3nc3cccc-2c13 ... 1.29 µM (inactive)

// for each molecule below, give its GI50
1. c1cncc(CSc2ncnc3[nH]cnc23)c1
2. COc1cc(C(=O)OCCn2[nH]c(-c3ccc(Cl)cc3)nc2=S)cc(OC)c1OC
3. COc1ccc(-c2cc(=O)c3c(O)c(OC)c(OC)c(OC)c3o2)cc1 [GARDENIN B]
4. CN1C(c2ccccc2)=CC(=O)C(O)=C(c2ccccc2)S1(=O)=O
5. CCOC(=O)C(C)(C)/C=C\C(Cl)=C(Cl)Cl
6. O=C(O)CC1CC=C[C@H]2c3cc4c(cc3C(=O)NC12)OCO4 (stereo partly specified)

Completion:
1. > 100 µM (inactive)
2. 44.7 µM (inactive)
3. 20.7 µM (inactive)
4. > 100 µM (inactive)
5. > 100 µM (inactive)
6. > 75 µM (inactive)

Could you report GI50 for every entry in the following list?
1. COc1cc(-c2cc(-c3cc([N+](=O)[O-])c(/C=N/NC(=O)c4ccncc4)o3)ccc2OC)ccc1C
2. CC(C)OCN1COCN/C1=N/C#N

Completion:
1. > 100 µM (inactive)
2. > 100 µM (inactive)

I'm hoping you can list GI50 for every molecule here, please.
1. Cc1nnc2n(c1=O)CCCN2C
2. Brc1ccc2[nH]cc([C@@H]3CN[C@@H](c4c[nH]c5ccc(Br)cc45)CN3)c2c1
3. Cc1cccc(CP(Cc2cccc(C)c2)CC2(Cp3c4ccccc4c4ccccc43)COC2)c1
4. CCCCC(=O)OC[n+]1ccc2c(C)c3[nH]c4ccc(OC)cc4c3c(C)c2c1
5. COC(=O)CC(=O)OC1C[C@@H]2CCC3C(C)(C)CCC[C@]3(C)C23CC[C@@]1(C)C3 (stereo partly specified)
6. Cc1cccc(-c2nc3c(C(=O)NCCN(C)C)cccc3[nH]2)c1

Completion:
1. > 100 µM (inactive)
2. 3.72 µM (inactive)
3. 2.18 µM (inactive)
4. 0.356 µM (active)
5. 19.2 µM (inactive)
6. 1.1 µM (active)

Field: GI50. Fill in for each record below.
1. O=c1cc(/C=C/c2ccc(O)c(O)c2)oc(/C=C/c2ccc(O)c(O)c2)c1
2. N#C/C(=C1\OC(=O)C(c2ccc(Br)cc2)=C1O)c1ccc(Br)cc1

Completion:
1. 9.06 µM (inactive)
2. 17.7 µM (inactive)
